Target: U1A Thr11Ala (UniProt P09012 1-101, T11A)
Sequence (P09012 1-101 T11A): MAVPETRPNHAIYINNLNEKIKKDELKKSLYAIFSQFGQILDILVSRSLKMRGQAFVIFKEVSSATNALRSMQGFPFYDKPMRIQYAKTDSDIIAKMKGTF
Test: SPR; ka 7.1e7 M-1s-1; kd 1.5e-2 s-1; Biacore 2000 SPR; running buffer with 125 ug/ml yeast tRNA and 62.5 ug/ml acetylated BSA; buffer, salt, pH and temperature as previously described (not given in material)
Conditions: protein: recombinant; tags: N-terminal His6; label: 5' biotin; hairpin

- Binder: "AGCUUAUCCAUUGCACUCCGGAUGAGCU (structured_RNA) [U1hpII]"
  Unit String: "nM"
  Kd: 0.21
